Target: T1, mouse transferrin receptor (mTfR) fused to EGFP, on CHO cells (mouse, UniProt Q62351 1-763)
T1 construct: whole, on cells; also called mouse TfR; CHO-mTfR-EGFP; not shown: EGFP
T1 sequence (Q62351 whole entry, the tested form may be a part): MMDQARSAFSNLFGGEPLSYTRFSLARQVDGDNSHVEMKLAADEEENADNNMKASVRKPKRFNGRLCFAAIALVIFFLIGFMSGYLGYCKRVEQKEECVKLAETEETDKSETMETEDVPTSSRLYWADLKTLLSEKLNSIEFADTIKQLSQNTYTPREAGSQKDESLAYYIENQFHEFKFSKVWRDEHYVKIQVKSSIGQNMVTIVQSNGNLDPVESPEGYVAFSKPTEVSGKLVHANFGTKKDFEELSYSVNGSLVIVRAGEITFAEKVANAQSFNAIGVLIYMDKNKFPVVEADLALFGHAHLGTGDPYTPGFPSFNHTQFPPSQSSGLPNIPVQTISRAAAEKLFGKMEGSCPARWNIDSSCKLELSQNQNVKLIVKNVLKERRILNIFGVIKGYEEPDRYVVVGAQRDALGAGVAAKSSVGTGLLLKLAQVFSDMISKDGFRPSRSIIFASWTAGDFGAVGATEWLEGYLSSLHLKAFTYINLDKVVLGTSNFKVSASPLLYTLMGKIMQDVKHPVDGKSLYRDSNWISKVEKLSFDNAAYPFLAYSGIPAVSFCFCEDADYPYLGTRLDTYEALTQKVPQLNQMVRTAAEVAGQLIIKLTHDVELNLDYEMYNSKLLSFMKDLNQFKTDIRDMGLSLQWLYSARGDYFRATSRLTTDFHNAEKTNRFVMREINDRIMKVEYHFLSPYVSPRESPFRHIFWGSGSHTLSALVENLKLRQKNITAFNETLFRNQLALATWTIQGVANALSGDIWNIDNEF
Experiment: apparent Kd, flow cytometry, CHO cells
Procedure: The binding properties of VHHs with affinity for the TfR from different species (i.e., human (h), mouse (m) and rhesus monkey (rh)) were tested using flow cytometry, and apparent affinities (Kd app) were determined. All experiments were performed in 96 well plates using 2×10⁵ cells/well, at 4° C. with shaking. […] Fluorescence levels were assessed using an Attune NxT flow cytometer (Thermo Fisher Scientific). […]
pKd: −log10 of the molar value.
Below is a list of entries, each paired with its recorded pKd value.
readoutLabel: pKd

• B8^V19 (VHH) VHH: EVQLVESGGGVVQPGGSLRLSCAASGEIFSINFMRWYRQAPGKQRHWVAGFTRDGSTNYPDSAKGRFTISRDNAKNTVYLQIDSLKPEDTAVYYCYMLDTWGQGTQVTVSS = 8.12
• C5^V30 (VHH) VHH: EVQLVESGGGVVQPGGSLKLSCVASGTDKSINFIRWYRQAPGKQREFVAGFTATGNTNYADSMKGRFTISRDNTKNAVYLQIDSLKPEDTAVYYCYMLDKWGQGTQVTVSS = 6.16
• B8^V29 (VHH) VHH: EVQLVESGGGVVQPGGSLRLSCAASGEIFSINFMRWYRQAPGKQREWVAGFTRDGSTNYPDSAKGRFTISRDNAKNTVYLQIDSLKPEDTAVYYCYMADTWGQGTQVTVSS = 5.78
• B8^V37 (VHH) VHH: EVQLVESGGGVVQPGGSLRLSCAASGEIFSINFMRWYRQAPGKQREWVAGFTRDGSTNYPDSAKGRFTISEDNAKNTVYLQIDSLKPEDTAVYYCYMLRTWGQGTQVTVSS = 6.24
• C5^V23 (VHH) VHH: EVQLVESGGGVVQPGGSLKLSCVASGTDFSINFIRWYRQAPGKQREFVAGFTATGNTNYADSMKGRFTISRDNTKNAVYLQIDSLKPEDTAVYYCHMLDKWGQGTQVTVSS = 6.60
• VHH A15 (C5^V15) (VHH) VHH: EVQLVESGGGVVQPGGSLKLSCVASGTDFSINFIRWYRQAPGKQREFVAGFTATGNTNYADSMKGRFTISRDNTKNAVYLQIDSLKPEDTAVYYCFMLDKWGQGTQVTVSS = 6.68
• A9a (VHH) VHH: QVQLVQSGGGLVQAGGSLRLSCAASGSIFLINDMGWYRQAPGKQRELVAVRGGSTKYGDSVKGRFTISRDDAKNTVYLQMNSLKPEDTAVYYCHRESGLGSSEYWGQGTQVTVSS = 6.08
• B8^V31 (VHH) VHH: EVQLVESGGGVVQPGGSLRLSCAASGEIKSINFMRWYRQAPGKQREWVAGFTRDGSTNYPDSAKGRFTISRDNAKNTVYLQIDSLKPEDTAVYYCYMLDTWGQGTQVTVSS = 5.77
• C5^h20 (VHH) VHH: EVQLVESGGGVVQPGGSLRLSCAASGTDFSINFIRWYRQAPGKGLEFVAGFTATGNTNYADSVKGRFTISRDNAKNAVYLQMNSLRPEDTAVYYCYMLDKWGQGTQVTVSS = 7.66
